tested_target: UniProtKB P97612
Sequence (P97612 whole entry): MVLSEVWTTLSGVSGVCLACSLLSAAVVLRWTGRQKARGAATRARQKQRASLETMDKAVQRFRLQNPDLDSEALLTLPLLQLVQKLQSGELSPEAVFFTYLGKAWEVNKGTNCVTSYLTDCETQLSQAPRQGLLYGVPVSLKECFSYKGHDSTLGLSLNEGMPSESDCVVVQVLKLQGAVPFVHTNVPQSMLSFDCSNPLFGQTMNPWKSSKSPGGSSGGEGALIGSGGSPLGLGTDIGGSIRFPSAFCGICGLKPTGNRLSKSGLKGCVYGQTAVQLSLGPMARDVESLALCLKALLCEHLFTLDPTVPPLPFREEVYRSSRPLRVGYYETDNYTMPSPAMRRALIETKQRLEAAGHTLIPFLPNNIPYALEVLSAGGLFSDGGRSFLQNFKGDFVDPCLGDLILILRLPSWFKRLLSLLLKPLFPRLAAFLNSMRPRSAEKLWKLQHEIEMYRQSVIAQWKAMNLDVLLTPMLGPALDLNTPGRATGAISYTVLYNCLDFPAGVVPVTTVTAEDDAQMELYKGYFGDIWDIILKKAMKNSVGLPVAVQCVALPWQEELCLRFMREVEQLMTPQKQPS
# IC50 against UniProtKB P97612, merged from multiple literature sources

[
  {
    "compound": "O=C(N1CCCCC1)N1CC(OC(c2ccc(Cl)cc2)c2ccccc2Cl)C1 (racemic)",
    "IC50": "> 500 µM"
  },
  {
    "compound": "CCCCCCCC/C=C\\CCCCCCCC(=O)NCCc1c[nH]c2ccc(O)cc12",
    "IC50": "> 50 µM"
  },
  {
    "compound": "Cn1c(=O)n(C2CCN(c3nccc(-c4cc5ccccc5o4)n3)CC2)c2ccccc21",
    "IC50": "> 10 µM"
  }
]

Consider the record given below.
Request: Endpoint output: IC50 of CCCCCCCC/C=C\CCCCCCCC(=O)NCc1ccc(B(O)O)cc1 . Value?
Result: > 10 µM

====

Values of IC50 for Fatty-acid amide hydrolase 1 (Rattus norvegicus, UniProt P97612), collected from a number of published sources:
tested_target: Fatty-acid amide hydrolase 1 (Rattus norvegicus, UniProt P97612)
Sequence (P97612 whole entry): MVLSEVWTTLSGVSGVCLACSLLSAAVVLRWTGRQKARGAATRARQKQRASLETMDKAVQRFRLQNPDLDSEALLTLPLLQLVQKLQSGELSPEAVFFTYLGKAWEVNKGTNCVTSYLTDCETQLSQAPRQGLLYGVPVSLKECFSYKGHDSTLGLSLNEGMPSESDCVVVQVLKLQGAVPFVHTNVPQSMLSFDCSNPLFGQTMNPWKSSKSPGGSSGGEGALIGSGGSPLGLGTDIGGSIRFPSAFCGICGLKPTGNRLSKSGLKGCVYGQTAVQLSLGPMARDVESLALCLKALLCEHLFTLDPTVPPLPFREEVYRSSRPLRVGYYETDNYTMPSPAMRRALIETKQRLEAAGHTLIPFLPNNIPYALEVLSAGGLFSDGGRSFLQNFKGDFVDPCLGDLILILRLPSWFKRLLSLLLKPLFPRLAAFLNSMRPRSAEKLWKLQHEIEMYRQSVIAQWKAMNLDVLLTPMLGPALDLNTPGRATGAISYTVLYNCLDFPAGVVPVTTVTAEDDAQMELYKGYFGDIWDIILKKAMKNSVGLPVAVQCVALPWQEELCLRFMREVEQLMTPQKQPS
quantity_name: IC50 (nM)

Completed entries (count: 5):
[
  {
    "molecule": "CN(C)C(=O)n1nnc(-c2ccc(Oc3ccccc3)cc2)n1",
    "value_observed": 12
  },
  {
    "molecule": "CC1CCCCN1C(=O)N1CC(OC(c2ccc(Cl)cc2)c2cccnc2Cl)C1 (racemic)",
    "value_observed": 505
  },
  {
    "molecule": "O=C(Nc1ccc(-n2nccn2)nc1)N1C[C@@H]2CCN(Cc3cccc(Oc4ccc(Cl)cc4)c3)[C@@H]2C1",
    "value_observed": 20
  },
  {
    "molecule": "O=C(Nc1cccnc1)N1C[C@@H]2CCN(Cc3cccc(Oc4ccc(Cl)cc4)c3)[C@@H]2C1",
    "value_observed": 24
  },
  {
    "molecule": "O=C(Nc1noc2cccnc12)N1CCN(Cc2cccc(Oc3ccc(Cl)cc3)c2)CC1",
    "value_observed": 22
  }
]

[a] O=C(Oc1ccccc1)N1CCC(CCn2ccc3cc(F)ccc32)CC1
[b] O=C(Nc1ccc(-c2cnc3ccccc3n2)cc1)C1CCN(S(=O)(=O)c2cccs2)CC1
Request: So which one has the bigger IC50 here, a or b ? Give the label of your selection.
Result: a

[I] O=[N+]([O-])c1ccc(B(O)O)cc1
[II] O=C(Nc1cnc2cc[nH]c2c1)N1CCN(Cc2cccc(Oc3ccc(Cl)cc3)c2)CC1
Request: Choose between I and II : whose measured IC50 value is numerically larger? To answer, give the label that identifies your chosen option.
Result: II
(II: 1100 nM, I: 210 nM)

[P] Cc1ccc(-c2cc(NCC(O)c3ccccc3)ncn2)cc1C (racemic)
[Q] Cc1ccccc1C(OC1CN(C(=O)N2CCCCC2)C1)c1cccnc1Cl (racemic)
Request: // compare measured IC50, left P , right Q , return larger In your reply, give the label of the chosen option.
Result: Q
(Q: 18400 nM, P: 2080 nM)
